Experimental Details: Brain penetration in rat after 48-hour intravenous infusion
Type: in vivo
Condition Label: male, rat, whole blood, iv, 100 μg/h, rats, 48 hours i.v. infusion 100 μg/h; read-out: Concentration in blood, individual animals
Measure: concentration at 48 h (ng/g)
Give the number; ng/g is assumed, so skip it.

Quick note, concentration at 48 h for N#Cc1cc(S(=O)(=O)N2C(=O)N(CCCCCN)C(=O)C2Cc2c[nH]c3ccccc23)ccc1Oc1ccc(N)cc1 (stereo not shown) landed at 59

###

System: GHRH stimulated GH secretion
Experimental Details: GH secretion in vivo, rat, intravenous infusion with repeated GHRH stimulation
Condition Label: Tables 8/9, urethane, 30′ of infusion
Measure: GH, UR Inf30′ +GHRH (µg/kg/h)
Give the number; µg/kg/h is assumed, so skip it.

{"columns": ["Molecule", "Assay System", "Measure Unit", "GH, UR Inf30′ +GHRH"],
 "data": [
  ["Cc1cccc2c(CC3C(=O)N(CCCCCN)C(=O)N3S(=O)(=O)c3ccc(Oc4ccc(O)c(Cl)c4)c(C#N)c3)c[nH]c12 (stereo not drawn)", "GHRH stimulated GH secretion", "µg/kg/h", 30],
  ["Cc1cccc2c(CC3C(=O)N(CCCCCN)C(=O)N3S(=O)(=O)c3ccc(Oc4ccc(O)cc4)c(CN)c3)c[nH]c12 (stereo not drawn)", "GHRH stimulated GH secretion", "µg/kg/h", 30.000],
  ["N#Cc1cc(S(=O)(=O)N2C(=O)N(CCCCCN)C(=O)C2Cc2c[nH]c3ccccc23)ccc1Oc1ccc(N)cc1 (stereo not drawn)", "GHRH stimulated GH secretion", "µg/kg/h", 434.000],
  ["Cc1cccc2c(CC3C(=O)N(CCCCCN)C(=O)N3S(=O)(=O)c3ccc(Oc4ccc(O)cc4)c(C#N)c3)c[nH]c12 (stereo not drawn)", "GHRH stimulated GH secretion", "µg/kg/h", 11.000],
  ["Cc1cccc2c(CC3C(=O)N(CCCCCN)C(=O)N3S(=O)(=O)c3ccc(Oc4ccc(O)cc4)c(C(=O)N(C)C)c3)c[nH]c12 (stereo not drawn)", "GHRH stimulated GH secretion", "µg/kg/h", 8.100]
]}

Here is another molecule to look at.
Quick note, GH, UR Inf30′ +GHRH for C[C@@H](O)[C@@H]1NC(=O)[C@H](CCCCN)NC(=O)[C@@H](Cc2c[nH]c3ccccc23)NC(=O)[C@H](Cc2ccccc2)NC(=O)[C@@H](NC(=O)[C@H](N)Cc2ccccc2)CSSC[C@@H](C(=O)N[C@H](CO)[C@@H](C)O)NC1=O [Octreotride, Octreotide, reference compound] landed at 0.082

###

Experimental Details: in vivo
Condition Label: male, Wistar, rat, iv, 1 mg/kg
Measure: clearance (mL/min)
Give the number; mL/min is assumed, so skip it.

Quick note, clearance for N#Cc1cc(S(=O)(=O)N2C(=O)N(CCCCCN)C(=O)C2Cc2c[nH]c3ccccc23)ccc1Oc1ccc(N)cc1 (stereo not shown) landed at 4.5

###

System: GH secretion
Experimental Details: Unanesthetized estradiol primed male rats, oral by gavage: GH
Type: in vivo, rat
Condition Label: estradiol implant male rats, oral by gavage, 1 hour
Here the recorded GH 1 H ID50 is given for each entry.
Give the number; mg/kg is assumed, so skip it.

Worked examples follow.
{"columns": ["Compound", "Measure", "Measure Unit", "Endpoint Result"],
 "data": [
  ["Cc1cccc2c(CC3C(=O)N(CCCCCN)C(=O)N3S(=O)(=O)c3ccc(Oc4ccc(O)c(Cl)c4)c(C#N)c3)c[nH]c12 (stereo not drawn)", "GH 1 H ID50", "mg/kg", 16],
  ["CN(C)C(=O)c1cc(S(=O)(=O)N2C(=O)N(CCCCCN)C(=O)C2Cc2c[nH]c3ccccc23)ccc1Oc1ccc(OC(=O)C(N)CCCCN)c(Cl)c1 (stereo not drawn)", "GH 1 H ID50", "mg/kg", 11]
]}

Here is another compound to look at.
So the reported GH 1 H ID50 for Cc1cccc2c(CC3C(=O)N(CCCCCN)C(=O)N3S(=O)(=O)c3ccc(Oc4ccc(O)c(Cl)c4)c(C(=O)N(C)C)c3)c[nH]c12 (racemic) [(+/−)-43] , on GH secretion, turned out to be 3

###

Experimental Details: Brain penetration in rat after 48-hour intravenous infusion
Assay type: in vivo
Condition Label: male, rat, whole blood, iv, 100 μg/h, rats, 48-hours i.v. infusion of 100 μg/h; read-out: blood concentration
Measure: concentration at 48 h (ng/mL)
Give the number; ng/mL is assumed, so skip it.

Quick note, concentration at 48 h for N#Cc1cc(S(=O)(=O)N2C(=O)N(CCCCCN)C(=O)C2Cc2c[nH]c3ccccc23)ccc1Oc1ccc(N)cc1 (stereo not shown) landed at 66

###

Assay System: SSTR1 (Homo sapiens)
Sequence (P30872 whole entry, species assumed): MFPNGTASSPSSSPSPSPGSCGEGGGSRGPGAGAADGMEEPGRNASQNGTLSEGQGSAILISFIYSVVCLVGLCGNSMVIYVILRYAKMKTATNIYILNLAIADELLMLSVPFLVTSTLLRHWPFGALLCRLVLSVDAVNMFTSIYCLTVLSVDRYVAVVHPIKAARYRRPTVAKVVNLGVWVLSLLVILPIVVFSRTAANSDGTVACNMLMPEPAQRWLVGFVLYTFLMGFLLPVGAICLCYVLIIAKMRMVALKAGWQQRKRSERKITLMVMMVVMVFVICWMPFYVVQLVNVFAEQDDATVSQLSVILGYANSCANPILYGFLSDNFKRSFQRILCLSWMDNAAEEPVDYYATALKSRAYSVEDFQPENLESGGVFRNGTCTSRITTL
Measure: IC50

{"columns": ["Compound", "IC50"],
 "data": [
  ["N#Cc1cc(S(=O)(=O)N2C(=O)N(CCCCCN)C(=O)C2Cc2c[nH]c3ccccc23)ccc1Oc1ccc(N)cc1 (centres unmarked) [Compound 42]", "50 µM"]
]}

Here is another compound to look at.
Quick note, IC50 for Cc1cccc2c(CC3C(=O)N(CCCCCN)C(=O)N3S(=O)(=O)c3ccc(Oc4ccc(O)cc4)c(C#N)c3)c[nH]c12 (centres unmarked) [Compound 14] landed at > 1 µM

###

Experimental Details: in vivo
Condition Label: male, Wistar, rat, iv, 1 mg/kg
Measure: Vd
Returns: string containing the number followed by the unit.

Quick note, Vd for N#Cc1cc(S(=O)(=O)N2C(=O)N(CCCCCN)C(=O)C2Cc2c[nH]c3ccccc23)ccc1Oc1ccc(N)cc1 (stereo not shown) [Compound 42] landed at 20 L/kg

###

Experimental Details: Brain penetration in rat after 48-hour intravenous infusion
Type: in vivo
Condition Label: male, rat, whole blood, iv, 100 μg/h, rats, 48 hours i.v. infusion 100 μg/h; read-out: Concentration in blood, MEAN ± SD
Measure: concentration at 48 h (ng/g)
Give the number; ng/g is assumed, so skip it.

Quick note, concentration at 48 h for N#Cc1cc(S(=O)(=O)N2C(=O)N(CCCCCN)C(=O)C2Cc2c[nH]c3ccccc23)ccc1Oc1ccc(N)cc1 (stereo not shown) landed at 66

###

Experimental Details: Brain penetration in rat after 48-hour intravenous infusion
Assay type: in vivo
Condition Label: male, rat, brain/whole blood, iv, 100 μg/h, rats, 48 hours i.v. infusion 100 μg/h; read-out: Brain/Blood Ratio, individual animals
Measure: Kp at 48 h
Please reply with the value in numeric form only.

Quick note, Kp at 48 h for N#Cc1cc(S(=O)(=O)N2C(=O)N(CCCCCN)C(=O)C2Cc2c[nH]c3ccccc23)ccc1Oc1ccc(N)cc1 (stereo not shown) landed at 0.27

###

Please consider the recorded IC50 for SSTR3 (Homo sapiens, UniProt P32745) in what follows.
Give the number; nM is assumed, so skip it.

Worked examples follow.
{"columns": ["Molecule", "Endpoint Result"],
 "data": [
  ["Cc1cccc2c(CC3C(=O)N(CCCCCN)C(=O)N3S(=O)(=O)c3ccc(Oc4ccc(O)cc4)c(C#N)c3)c[nH]c12 (stereo not drawn)", 300],
  ["N#Cc1cc(S(=O)(=O)N2C(=O)N(CCCCCN)C(=O)C2Cc2c[nH]c3ccccc23)ccc1Oc1ccc(N)cc1 (stereo not drawn)", 2800]
]}

Here is another molecule to look at.
So the reported IC50 for Cc1cccc2c(CC3C(=O)N(CCCCCN)C(=O)N3S(=O)(=O)c3ccc(Oc4ccc(O)cc4)c(C(=O)N(C)C)c3)c[nH]c12 (stereo not drawn) , on SSTR3 (Homo sapiens, UniProt P32745), turned out to be 450

###

Tested on: GHRH stimulated GH secretion
Experimental Details: GH secretion in vivo, rat, intravenous infusion with repeated GHRH stimulation
Condition Label: Tables 8/9, urethane, 60′ of infusion
Experimental: Animals, anesthesia: Male rats of a Sprague Dawley strain (Ico:OFA-SD, Iffa-Credo, F-Lyon) of 200-300 g body weight were used. […] Statistics: In each experiment, 4-5 animals were used per dose, with 6 to 8 animals as the control group that received the vehicle. The GH serum/plasma levels were averaged, the mean of the treated groups expressed in percent of the control group and the ID50-value for the inhibition of the secretion was determined graphically (log-probit) for each experiment. […]
Here the recorded GH, UR Inf60′ +GHRH is given for each entry.
Give the number; µg/kg/h is assumed, so skip it.

Worked examples follow.
{"columns": ["Molecule", "Endpoint Result"],
 "data": [
  ["N#Cc1cc(S(=O)(=O)N2C(=O)N(CCCCCN)C(=O)C2Cc2c[nH]c3ccccc23)ccc1Oc1ccc(N)cc1 (stereo not drawn)", 425.000],
  ["Cc1cccc2c(CC3C(=O)N(CCCCCN)C(=O)N3S(=O)(=O)c3ccc(Oc4ccc(O)cc4)c(C(=O)N(C)C)c3)c[nH]c12 (stereo not drawn)", 6.400],
  ["Cc1cccc2c(CC3C(=O)N(CCCCCN)C(=O)N3S(=O)(=O)c3ccc(Oc4ccc(O)c(Cl)c4)c(C#N)c3)c[nH]c12 (stereo not drawn)", 21],
  ["C[C@@H](O)[C@@H]1NC(=O)[C@H](CCCCN)NC(=O)[C@@H](Cc2c[nH]c3ccccc23)NC(=O)[C@H](Cc2ccccc2)NC(=O)[C@@H](NC(=O)[C@H](N)Cc2ccccc2)CSSC[C@@H](C(=O)N[C@H](CO)[C@@H](C)O)NC1=O [Octreotride, Octreotide, reference compound]", 0.085]
]}

So the reported GH, UR Inf60′ +GHRH for Cc1cccc2c(CC3C(=O)N(CCCCCN)C(=O)N3S(=O)(=O)c3ccc(Oc4ccc(O)cc4)c(C#N)c3)c[nH]c12 (stereo not drawn) , on GHRH stimulated GH secretion, turned out to be 14.000

So the reported GH, UR Inf60′ +GHRH for Cc1cccc2c(CC3C(=O)N(CCCCCN)C(=O)N3S(=O)(=O)c3ccc(Oc4ccc(O)cc4)c(CN)c3)c[nH]c12 (stereo not drawn) , on GHRH stimulated GH secretion, turned out to be 30.000
